Attribution: patent US20210238281A1

Molecular target: T1, recombinant human MOG protein (human, UniProt Q16653 30-154, limits assumed)
T1 construct: Bought recombinant protein; also called HMOG
T1 sequence (looked up): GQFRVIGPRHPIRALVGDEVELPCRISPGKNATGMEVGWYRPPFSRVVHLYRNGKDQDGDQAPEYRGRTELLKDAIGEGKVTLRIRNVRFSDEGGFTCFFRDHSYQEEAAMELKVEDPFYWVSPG
Assay: phage-scFv ELISA on coated recombinant human MOG (0.5 µg/well), anti-M13 HRP, OD450 over BSA background
Reported ratio OD on target/OD bdf by item:
// units = ratio; emit number, no label

anti-MOG MO3I-57 antibody (scFv, V domains shown) VH: QVQLVQSGAEVKKPGASVKVSCKASGYTFSSYGISWVRQAPGQGLEWMGWISANTGNTDYAERLQGRVTMTTDTSTTTAYMELRSLRSDDTAVYYCARGAPNGYAVDYWGQGTLVTVSS VL: QSVLTQPPSASGAPGQRVSISCSGSSSNIGTNHVYWYQQFTGMAPKLIIDTNNQRPPGVPARFSGSKSGTSASLAISGLRSEDESDYYCLTWDDGLYDWVFGGGTKLTVL : 2.44

State, in one line, measured ratio OD on target/OD bdf of anti-MOG MO3J-51 antibody (scFv, V domains shown) VH: EVQLVQSGAEVKKPGASVKVSCKASGYTFTSYGISWVRQAPGQGLEWMGWISAYNGNTNYAQKLQGRVTMTTDTSTSTAYMELRSLGSDDTAVYYCARNMGCSSTSCFVSWFDPWGQGTLVTVSS VL: QSVLTQPPSVSAAPGRKVTISCSGSSSNIGNNYVAWYQQLPGTAPKLLIYENNKRPSGIPGRFSGSKSATSATLGITGLQTGDEADYYCGTWDNSLSAWVFGGGTKLTVL 14.6
